IC50 or EC50 (agonist or antagonist mode not specified) for assorted molecules
# Study system: glucocorticoid receptor (Homo sapiens, UniProt P04150)
# Construct: expressed in transfected cells
# Sequence (P04150 524-758 limits assumed): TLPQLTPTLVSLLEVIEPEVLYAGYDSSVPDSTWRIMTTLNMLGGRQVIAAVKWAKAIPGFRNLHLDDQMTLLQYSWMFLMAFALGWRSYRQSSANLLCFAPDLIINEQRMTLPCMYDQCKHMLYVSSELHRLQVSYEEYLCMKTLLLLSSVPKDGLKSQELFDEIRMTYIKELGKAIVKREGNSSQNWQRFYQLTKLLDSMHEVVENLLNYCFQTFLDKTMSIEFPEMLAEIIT
# Procedure text: Agonistic mode of action on the glucocorticoid receptor (CHO-Gal4/GR luciferase reporter cell line)
# Type: cell-based
# Measurement parameters: range class observed in the agonistic assay or the antagonistic assay (CHO-Gal4/GR reporter cells); table does not say which mode applies per example
Property name: IC50 or EC50 (agonist or antagonist mode not specified)

[[record]]
molecule = "COc1cc2c(c(C(F)(F)F)c1-c1cccc3c(C)c[nH]c13)-n1c(C)nnc1C(C)(C)N2 [Example 357]"
reported_measurement = "< 100 nM"

[[record]]
molecule = "COc1cc(-c2c(F)cc3c(c2C(F)(F)F)-n2c(C)nnc2C(C)(C)N3)c2ccn(S(C)(=O)=O)c2c1 [Example 536]"
reported_measurement = "100 to 1000 nM"

[[record]]
molecule = "Cc1nnc2n1-c1c(cc(F)c(-c3c(F)ccc4[nH]ccc34)c1F)NC2(C)C [Example 214]"
reported_measurement = "< 100 nM"

[[record]]
molecule = "COc1cc2c(c(F)c1-c1cc(F)cc3c1ccn3S(C)(=O)=O)-n1c(C)nnc1C(C)(C)N2 [Example 255]"
reported_measurement = "1000 to 15000 nM"

[[record]]
molecule = "COc1cc2c(c(F)c1-c1cccc3[nH]c(C(F)(F)F)cc13)-n1c(C)nnc1C(C)(C)N2 [Example 257]"
reported_measurement = "100 to 1000 nM"

[[record]]
molecule = "COc1c(-c2cccc3c2cnn3S(C)(=O)=O)c(F)cc2c1-n1c(C)nnc1C(C)(C)N2 [Example 342]"
reported_measurement = "1000 to 15000 nM"

[[record]]
molecule = "Cc1nnc2n1-c1c(cc(F)c(-c3cccc4c(C5CCC5)c[nH]c34)c1Cl)NC2(C)C [Example 41]"
reported_measurement = "< 100 nM"

[[record]]
molecule = "COc1cc2c(c(C(F)(F)F)c1-c1cccc3c1ccn3C1CC1)-n1c(C)nnc1C(C)(C)N2 [Example 523]"
reported_measurement = "100 to 1000 nM"

[[record]]
molecule = "Cc1c[nH]c2c(-c3c(F)cc4c(c3F)-n3c(Cc5ccccn5)nnc3C(C)(C)N4)cccc12 [Example 75]"
reported_measurement = "< 100 nM"

[[record]]
molecule = "Cc1c(-c2cc(C#N)cc3[nH]ccc23)c(F)cc2c1-n1c(C)nnc1C(C)(C)N2 [Example 494]"
reported_measurement = "100 to 1000 nM"

[[record]]
molecule = "COc1cc2c(c(C(F)(F)F)c1-c1cccc3c1ccn3S(C)(=O)=O)-n1c(C)nnc1C(C)(C)N2 [Example 310]"
reported_measurement = "100 to 1000 nM"

[[record]]
molecule = "Cc1c[nH]c2c(-c3c(F)cc4c(c3C(F)F)-n3c(C)nnc3C(C)(C)N4)cc(F)cc12 [Example 302]"
reported_measurement = "< 100 nM"

[[record]]
molecule = "Cc1nnc2n1-c1c(cc(F)c(-c3cccc4c(C5CC5)c[nH]c34)c1Cl)NC2(C)C [Example 85]"
reported_measurement = "100 to 1000 nM"

[[record]]
molecule = "Cc1c[nH]c2c(-c3c(OC(F)F)cc4c(c3F)-n3c(C)nnc3C(C)(C)N4)cc(F)cc12 [Example 267]"
reported_measurement = "100 to 1000 nM"

[[record]]
molecule = "Cc1cc2c(c(C)c1-c1cccc3c(C)c[nH]c13)-n1c(C)nnc1C(C)(C)N2 [Example 356]"
reported_measurement = "< 100 nM"


---

# Study system: glucocorticoid receptor (Homo sapiens)
# Construct: expressed in transfected cells
# Procedure text: Agonistic mode of action on the glucocorticoid receptor (CHO-Gal4/GR luciferase reporter cell line)
# Type: cell-based
# Measurement parameters: range class observed in the agonistic assay or the antagonistic assay (CHO-Gal4/GR reporter cells); table does not say which mode applies per example
IC50 or EC50 (agonist or antagonist mode not specified) for assorted compounds
Property name: IC50 or EC50 (agonist or antagonist mode not specified)

[[record]]
compound = "Cc1c(-c2cc(F)cc3c(C)c[nH]c23)c(OC(F)F)cc2c1-n1c(C)nnc1C(C)(C)N2"
reported_measurement = "1000 to 15000 nM"

[[record]]
compound = "Cc1nnc2n1-c1c(cc(F)c(-c3cccc4c3ccn4CCO)c1C(F)(F)F)NC2(C)C"
reported_measurement = "100 to 1000 nM"

[[record]]
compound = "Cc1c(-c2cc(F)cc3c(C)c[nH]c23)c(OC(F)(F)F)cc2c1-n1c(C)nnc1C(C)(C)N2 [Example 406]"
reported_measurement = "100 to 1000 nM"

[[record]]
compound = "Cc1nnc2n1-c1c(cc(F)c(-c3cc(F)cc4[nH]ccc34)c1F)NC2(C)C"
reported_measurement = "< 100 nM"


---

# Study system: glucocorticoid receptor (Homo sapiens, UniProt P04150)
# Construct: expressed in transfected cells
# Procedure text: Agonistic mode of action on the glucocorticoid receptor (CHO-Gal4/GR luciferase reporter cell line)
# Type: cell-based
# Measurement parameters: range class observed in the agonistic assay or the antagonistic assay (CHO-Gal4/GR reporter cells); table does not say which mode applies per example
Property name: IC50 or EC50 (agonist or antagonist mode not specified)

[[record]]
compound = "COCCn1ccc2c(-c3c(OC(F)F)cc4c(c3F)-n3c(C)nnc3C(C)(C)N4)cc(F)cc21 [Example 394]"
reported_measurement = "1000 to 15000 nM"

[[record]]
compound = "Cc1nnc2n1-c1c(cc(F)c(-c3cc(F)cc4cc[nH]c34)c1C(F)F)NC2(C)C [Example 515]"
reported_measurement = "100 to 1000 nM"

[[record]]
compound = "Cc1nnc2n1-c1c(cc(F)c(-c3cc(F)cc4c3ccn4CCO)c1C(F)(F)F)NC2(C)C [Example 447]"
reported_measurement = "100 to 1000 nM"

[[record]]
compound = "COc1cc2c(c(F)c1-c1cccc3c1ccn3CC(F)F)-n1c(C)nnc1C(C)(C)N2 [Example 314]"
reported_measurement = "1000 to 15000 nM"

[[record]]
compound = "COCCn1ccc2c(-c3c(OC)cc4c(c3F)-n3c(C)nnc3C(C)(C)N4)cc(F)cc21 [Example 353]"
reported_measurement = "1000 to 15000 nM"

[[record]]
compound = "Cc1cc(-c2c(F)cc3c(c2C(F)F)-n2c(C)nnc2C(C)(C)N3)c2ccn(S(C)(=O)=O)c2c1 [Example 478]"
reported_measurement = "100 to 1000 nM"


---

# Study system: glucocorticoid receptor (Homo sapiens, UniProt P04150)
# Construct: expressed in transfected cells
# Sequence (P04150 524-758 limits assumed): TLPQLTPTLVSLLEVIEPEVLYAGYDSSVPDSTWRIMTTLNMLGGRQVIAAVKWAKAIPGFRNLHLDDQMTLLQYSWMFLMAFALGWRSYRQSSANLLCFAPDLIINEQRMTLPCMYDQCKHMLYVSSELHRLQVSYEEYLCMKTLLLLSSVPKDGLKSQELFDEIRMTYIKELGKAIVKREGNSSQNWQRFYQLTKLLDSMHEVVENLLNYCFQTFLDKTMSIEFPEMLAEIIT
# Procedure text: Agonistic mode of action on the glucocorticoid receptor (CHO-Gal4/GR luciferase reporter cell line)
# Assay type: cell-based
# Measurement parameters: range class observed in the agonistic assay or the antagonistic assay (CHO-Gal4/GR reporter cells); table does not say which mode applies per example
IC50 or EC50 (agonist or antagonist mode not specified) for assorted compounds
Property name: IC50 or EC50 (agonist or antagonist mode not specified)

[[record]]
compound = "COCCn1ccc2c(-c3c(F)cc4c(c3F)-n3c(C)nnc3C(C)(C)N4)cccc21 [Example 204]"
reported_measurement = "100 to 1000 nM"

[[record]]
compound = "Cc1n[nH]c2c(-c3c(F)cc4c(c3C(F)F)-n3c(C)nnc3C(C)(C)N4)cccc12 [Example 367]"
reported_measurement = "100 to 1000 nM"

[[record]]
compound = "Cc1cc2c(c(F)c1-c1cc(F)cc3c1ccn3S(C)(=O)=O)-n1c(C)nnc1C(C)(C)N2 [Example 332]"
reported_measurement = "1000 to 15000 nM"

[[record]]
compound = "Cc1c[nH]c2c(-c3c(Cl)cc4c(c3F)-n3c(C)nnc3C(C)(C)N4)cc(F)cc12 [Example 290]"
reported_measurement = "100 to 1000 nM"

[[record]]
compound = "Cc1nnc2n1-c1c(cc(F)c(-c3cccc4c(C(F)(F)F)c[nH]c34)c1F)NC2(C)C [Example 10]"
reported_measurement = "100 to 1000 nM"

[[record]]
compound = "CCS(=O)(=O)n1ccc2c(-c3c(F)cc4c(c3C)-n3c(C)nnc3C(C)(C)N4)cccc21 [Example 372]"
reported_measurement = "< 100 nM"

[[record]]
compound = "Cc1cc(-c2c(Cl)cc3c(c2C)-n2c(C)nnc2C(C)(C)N3)c2ccn(S(C)(=O)=O)c2c1 [Example 491]"
reported_measurement = "< 100 nM"

[[record]]
compound = "Cc1nnc2n1-c1c(cc(F)c(-c3cc(F)cc4c3ccn4CC(F)(F)F)c1F)NC2(C)C [Example 21]"
reported_measurement = "100 to 1000 nM"

[[record]]
compound = "CC#Cc1c[nH]c2c(-c3c(F)cc4c(c3C)-n3c(CCOC)nnc3C(C)(C)N4)cc(F)cc12 [Example 79]"
reported_measurement = "1000 to 15000 nM"

[[record]]
compound = "Cc1c(-c2ccc(F)c3[nH]ccc23)c(F)cc2c1-n1c(C)nnc1C(C)(C)N2 [Example 504]"
reported_measurement = "100 to 1000 nM"

[[record]]
compound = "Cc1cc2c(c(F)c1-c1cccc3c(C)c[nH]c13)-n1c(C)nnc1C(C)(C)N2 [Example 359]"
reported_measurement = "100 to 1000 nM"

[[record]]
compound = "COCCn1ccc2c(-c3c(OC)cc4c(c3F)-n3c(C)nnc3C(C)(C)N4)cccc21 [Example 288]"
reported_measurement = "1000 to 15000 nM"

[[record]]
compound = "CCc1c(-c2cc(F)cc3c2ccn3S(C)(=O)=O)c(F)cc2c1-n1c(C)nnc1C(C)(C)N2 [Example 46]"
reported_measurement = "< 100 nM"

[[record]]
compound = "Cc1nnc2n1-c1c(cc(F)c(-c3cc(F)cc4c3ccn4C)c1C(F)(F)F)NC2(C)C [Example 532]"
reported_measurement = "< 100 nM"

[[record]]
compound = "Cc1c(-c2cccc3c(C)c[nH]c23)c(OC(F)F)cc2c1-n1c(C)nnc1C(C)(C)N2 [Example 360]"
reported_measurement = "100 to 1000 nM"

[[record]]
compound = "CCc1nnc2n1-c1c(cc(F)c(-c3cc(F)cc4c3cnn4S(C)(=O)=O)c1C)NC2(C)C [Example 348]"
reported_measurement = "1000 to 15000 nM"

[[record]]
compound = "Cc1c(-c2ccc(F)c3[nH]ncc23)c(F)cc2c1-n1c(C)nnc1C(C)(C)N2 [Example 524]"
reported_measurement = "100 to 1000 nM"

[[record]]
compound = "CC(=O)n1ccc2c(-c3c(F)cc4c(c3F)-n3c(C)nnc3C(C)(C)N4)cc(F)cc21 [Example 4]"
reported_measurement = "< 100 nM"

[[record]]
compound = "Cc1c(-c2cccc3c(C#CC(C)(C)N)c[nH]c23)c(F)cc2c1-n1c(C)nnc1C(C)(C)N2 [Example 40]"
reported_measurement = "< 100 nM"

[[record]]
compound = "COc1c(-c2cc(F)cc3[nH]ccc23)c(F)cc2c1-n1c(C)nnc1C(C)(C)N2 [Example 468]"
reported_measurement = "< 100 nM"

[[record]]
compound = "Cc1c[nH]c2c(-c3c(F)cc4c(c3F)-n3c(Cc5ccccc5)nnc3C(C)(C)N4)cc(F)cc12 [Example 67]"
reported_measurement = "1000 to 15000 nM"

